- system under test: hMC4-R (Homo sapiens, UniProt P32245)
- Construct: expressed in transfected cells; host or cells: CHO-K1
- Sequence (P32245 whole entry): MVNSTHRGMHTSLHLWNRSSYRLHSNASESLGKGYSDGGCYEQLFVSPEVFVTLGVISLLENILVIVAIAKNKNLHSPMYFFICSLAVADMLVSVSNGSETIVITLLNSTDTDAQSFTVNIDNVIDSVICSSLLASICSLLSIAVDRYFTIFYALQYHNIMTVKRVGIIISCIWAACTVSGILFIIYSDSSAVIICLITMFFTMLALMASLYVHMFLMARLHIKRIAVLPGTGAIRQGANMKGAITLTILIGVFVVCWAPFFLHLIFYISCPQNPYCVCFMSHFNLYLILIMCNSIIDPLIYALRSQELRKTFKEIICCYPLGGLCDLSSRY
- method: cyclic AMP bioassay (ECL) in CHO-K1 cells
- Type: cell-based
Hi there, I'd appreciate the recorded EC50 for every entry that follows.

Entry CCCC[C@H](NC(C)=O)C(=O)N[C@H]1CSSC(C)(C)[C@@H](C(N)=O)NC(=O)[C@H](Cc2c[nH]c3ccccc23)NC(=O)[C@H](CCCNC(=N)N)NC(=O)[C@@H](Cc2ccccc2)NC(=O)[C@H](Cc2c[nH]cn2)NC(=O)[C@@H](C)NC1=O needs its EC50 filled in; supply it. 0.183 nM

Entry CCCC[C@@H]1NC(=O)N(CC(=O)N[C@H]2CSSC(C)(C)[C@@H](C(N)=O)NC(=O)[C@H](Cc3c[nH]c4ccccc34)NC(=O)[C@H](CCCNC(=N)N)NC(=O)[C@@H](Cc3ccccc3)NC(=O)[C@H](Cc3cnc[nH]3)NC(=O)[C@@H](C)NC2=O)C1=O needs its EC50 filled in; supply it. 0.584 nM

Entry CC[C@H](C)[C@@H]1NC(=O)N([C@H]2CSSC[C@@H](C(N)=O)NC(=O)[C@H](Cc3c[nH]c4ccccc34)NC(=O)[C@H](CCCNC(=N)N)NC(=O)[C@@H](Cc3ccccc3)NC(=O)[C@H](Cc3cnc[nH]3)NC(=O)[C@@H](C)NC2=O)C1=O needs its EC50 filled in; supply it. 1.85 nM

Entry CCCC[C@H](NC(C)=O)C(=O)N[C@H]1CSSC[C@@H](C(N)=O)NC(=O)[C@H](Cc2c[nH]c3ccccc23)NC(=O)[C@H](CCCNC(=N)N)NC(=O)[C@@H](Cc2ccccc2)NC(=O)[C@H](Cc2c[nH]cn2)NC(=O)[C@@H](C)NC1=O needs its EC50 filled in; supply it. 0.078 nM

* * *

- system under test: hMC4-R (Homo sapiens)
- Construct: expressed in transfected cells; host or cells: CHO-K1
- method: cyclic AMP bioassay (ECL) in CHO-K1 cells
- Assay type: cell-based
- setup conditions: Table 9A/9B; read-out: EC50 hMC4-R
Bridge positions count the residues as written; N and C are the ends. Square brackets hold non-standard residues; d marks the D form. Peptide text beside a SMILES is read from it. Pen = CC(C)(S)[C@H](N)C(=O)O; GABA = NCCCC(=O)O; βAla = NCCC(=O)O
Hi there, I'd appreciate the recorded pEC50 for every entry that follows.
Schema: pEC50 number; meaning minus log10 of the concentration expressed in molar units.

Output reported pEC50 of the molecule CCOc1ccc(C[C@H]2NC(=O)[C@H](Cc3c[nH]cn3)NC(=O)[C@@H](NC(=O)[C@H](N)Cc3ccccc3)CSSC[C@H](C(=O)N[C@H](C(N)=O)[C@@H](C)O)NC(=O)CCNC(=O)[C@H](Cc3c[nH]c4ccccc34)NC(=O)[C@H](CCCNC(=N)N)NC2=O)cc1 (H-[dF]CH[dY](Et)RW[βAla][dC]T-NH2; disulfide 2-8) on hMC4-R (Homo sapiens). 9.96

Output reported pEC50 of the molecule CC(=O)N[C@@H](CCC1CCCCC1)C(=O)N[C@H]1CC(=O)NCCCC[C@@H](C(N)=O)NC(=O)CCCNC(=O)[C@H](Cc2c[nH]c3ccccc23)NC(=O)[C@H](CCCNC(=N)N)NC(=O)[C@@H](Cc2ccccc2)NC(=O)[C@H](Cc2c[nH]cn2)NC1=O on hMC4-R (Homo sapiens). 8.14

Output reported pEC50 of the molecule CC(=O)N[C@@H](CCCNC(=N)N)C(=O)N[C@H]1CSSC(C)(C)[C@@H](C(N)=O)NC(=O)CCCNC(=O)[C@H](Cc2c[nH]c3ccccc23)NC(=O)[C@H](CCCNC(=N)N)NC(=O)[C@@H](Cc2ccccc2)NC(=O)[C@H](Cc2c[nH]cn2)NC1=O (Ac-RCH[dF]RW[GABA][Pen]-NH2; disulfide 2-8 (inferred)) on hMC4-R (Homo sapiens). 9.14

Output reported pEC50 of the molecule CCCC[C@H](NC(C)=O)C(=O)N[C@H]1CSSC[C@@H](C(N)=O)NC(=O)[C@H](Cc2c[nH]c3ccccc23)NC(=O)[C@H](CCCNC(=N)N)NC(=O)[C@@H](Cc2ccccc2)NC(=O)[C@H](Cc2c[nH]cn2)NC(=O)[C@@H](CC2CCCCC2)NC1=O on hMC4-R (Homo sapiens). 9.34

Output reported pEC50 of the molecule CCCC[C@H](NC(C)=O)C(=O)N[C@H]1CSSC[C@@H](C(N)=O)NC(=O)[C@H](Cc2c[nH]c3ccccc23)NC(=O)[C@H](CCCNC(=N)N)NC(=O)[C@@H](Cc2ccccc2)NC(=O)[C@H](Cc2c[nH]cn2)NC(=O)[C@@H](CC(C)C)NC1=O on hMC4-R (Homo sapiens). 10.04

Output reported pEC50 of the molecule CCCC[C@H](NC(C)=O)C(=O)N[C@H]1CC(=O)NCCCC[C@@H](C(N)=O)NC(=O)CCCNC(=O)[C@H](Cc2c[nH]c3ccccc23)NC(=O)[C@H](CCCNC(=N)N)NC(=O)[C@@H](Cc2ccccc2)NC(=O)[C@H](Cc2c[nH]cn2)NC1=O on hMC4-R (Homo sapiens). 9.88

Output reported pEC50 of the molecule CCCC[C@H](NC(C)=O)C(=O)N[C@H]1CC(=O)NCCCC[C@@H](C(N)=O)NC(=O)CCNC(=O)[C@H](Cc2c[nH]c3ccccc23)NC(=O)[C@H](CCCNC(=N)N)NC(=O)[C@@H](Cc2ccccc2)NC(=O)[C@H](Cc2c[nH]cn2)NC1=O on hMC4-R (Homo sapiens). 9.89

* * *

Hi there, I'd appreciate the recorded pKi for every entry that follows.
- system under test: hMC3-R (Homo sapiens, UniProt P41968)
- Construct: expressed in transfected cells; host or cells: CHO-K1
- Sequence (P41968 whole entry): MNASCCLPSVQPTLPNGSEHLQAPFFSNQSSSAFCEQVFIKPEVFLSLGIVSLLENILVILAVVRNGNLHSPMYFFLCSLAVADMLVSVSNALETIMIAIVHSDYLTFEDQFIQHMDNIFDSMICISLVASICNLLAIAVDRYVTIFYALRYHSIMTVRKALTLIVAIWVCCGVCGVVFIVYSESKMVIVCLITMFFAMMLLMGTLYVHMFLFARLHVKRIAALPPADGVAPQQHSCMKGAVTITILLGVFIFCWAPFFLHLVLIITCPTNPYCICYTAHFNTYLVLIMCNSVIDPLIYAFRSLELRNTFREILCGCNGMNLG
- method: Radioligand binding assay, [125I]-NDP-α-MSH competition, CHO-K1 membranes
- setup conditions: Ki hMC3-R, Table 5
Schema: pKi number; meaning minus log10 of the concentration expressed in molar units.

Entry CC(=O)N[C@H](CCCNC(=N)N)C(=O)N[C@H]1CSSC(C)(C)[C@@H](C(N)=O)NC(=O)[C@H](Cc2c[nH]c3ccccc23)NC(=O)[C@H](CCCNC(=N)N)NC(=O)[C@@H](Cc2ccccc2)NC(=O)[C@H](Cc2c[nH]cn2)NC(=O)[C@@H](C)NC1=O needs its pKi filled in; supply it. 7.88

Entry CCCC[C@H](NC(C)=O)C(=O)N[C@H]1CSSC[C@@H](C(N)=O)NC(=O)[C@H](Cc2c[nH]c3ccccc23)NC(=O)[C@H](CCCNC(=N)N)NC(=O)[C@@H](Cc2ccccc2)NC(=O)[C@H](Cc2c[nH]cn2)NC(=O)[C@@H](C)NC1=O needs its pKi filled in; supply it. 7.59

Entry CCCC[C@H](NC(C)=O)C(=O)N[C@H]1CSSC(C)(C)[C@@H](C(N)=O)NC(=O)[C@H](Cc2c[nH]c3ccccc23)NC(=O)[C@H](CCCNC(=N)N)NC(=O)[C@@H](Cc2ccccc2)NC(=O)[C@H](Cc2c[nH]cn2)NC(=O)[C@@H](C)NC1=O needs its pKi filled in; supply it. 7.64

Entry CCCC[C@H](NC(C)=O)C(=O)N[C@H]1CSSC[C@@H](C(=O)O)NC(=O)[C@H](Cc2c[nH]c3ccccc23)NC(=O)[C@H](CCCNC(=N)N)NC(=O)[C@@H](Cc2ccccc2)NC(=O)[C@H](Cc2c[nH]cn2)NC(=O)[C@@H](C)NC1=O needs its pKi filled in; supply it. 6.82

* * *

Hi there, I'd appreciate the recorded Ki for every entry that follows.
- system under test: hMC4-R (Homo sapiens, UniProt P32245)
- Construct: expressed in transfected cells; host or cells: CHO-K1
- method: Radioligand binding assay, [125I]-NDP-α-MSH competition, CHO-K1 membranes
- setup conditions: Table 5; read-out: Ki KMC4-R
Bridge positions count the residues as written; N and C are the ends. Square brackets hold non-standard residues; d marks the D form. Peptide text beside a SMILES is read from it. Bip = N[C@@H](Cc1ccc(-c2ccccc2)cc1)C(=O)O; d2Nal = N[C@H](Cc1ccc2ccccc2c1)C(=O)O; hArg = N=C(N)NCCCC[C@H](N)C(=O)O; Pen = CC(C)(S)[C@H](N)C(=O)O; Nle = CCCC[C@H](N)C(=O)O; Ahx = NCCCCCC(=O)O; GABA = NCCCC(=O)O; βAla = NCCC(=O)O
Reply with just the number (in nM).

Entry C[C@@H](O)[C@H](NC(=O)[C@H]1CSSC[C@H](NC(=O)[C@H](N)Cc2ccccc2)C(=O)N[C@@H](Cc2c[nH]cn2)C(=O)N[C@H](Cc2ccccc2)C(=O)N[C@@H](CCCNC(=N)N)C(=O)N[C@@H](Cc2c[nH]c3ccccc23)C(=O)NCCCC(=O)N1)C(N)=O (H-[dF]CH[dF]RW[GABA][dC]T-NH2; disulfide 2-8) needs its Ki filled in; supply it. 4.75

Entry CC(=O)N[C@@H](CC1CCCCC1)C(=O)N[C@H]1CC(=O)NCCCC[C@@H](C(N)=O)NC(=O)CCCNC(=O)[C@H](Cc2c[nH]c3ccccc23)NC(=O)[C@H](CCCNC(=N)N)NC(=O)[C@@H](Cc2ccccc2)NC(=O)[C@H](Cc2c[nH]cn2)NC1=O needs its Ki filled in; supply it. 1.49

Entry CCOc1ccc(C[C@H]2NC(=O)[C@H](Cc3c[nH]cn3)NC(=O)[C@@H](NC(=O)[C@H](N)Cc3ccccc3)CSSC[C@H](C(=O)N[C@H](C(N)=O)[C@@H](C)O)NC(=O)CCNC(=O)[C@H](Cc3c[nH]c4ccccc34)NC(=O)[C@H](CCCCNC(=N)N)NC2=O)cc1 (H-[dF]CH[dY](Et)[hArg]W[βAla][dC]T-NH2; disulfide 2-8) needs its Ki filled in; supply it. 14.7

Entry CCCC[C@H](NC(C)=O)C(=O)N[C@H]1CSSC[C@@H](C(N)=O)NC(=O)CCCNC(=O)[C@H](Cc2c[nH]c3ccccc23)NC(=O)[C@H](CCCNC(=N)N)NC(=O)[C@@H](Cc2ccc3ccccc3c2)NC(=O)[C@H](Cc2c[nH]cn2)NC1=O (Ac-[Nle]CH[d2Nal]RW[GABA]C-NH2; disulfide 2-8) needs its Ki filled in; supply it. 0.375

Entry CCOc1ccc(C[C@H]2NC(=O)[C@H](Cc3c[nH]cn3)NC(=O)[C@@H](NC(=O)[C@H](N)Cc3ccccc3)CSSC[C@H](C(=O)N[C@H](C(N)=O)[C@@H](C)O)NC(=O)CCNC(=O)[C@H](Cc3ccc(-c4ccccc4)cc3)NC(=O)[C@H](CCCCNC(=N)N)NC2=O)cc1 (H-[dF]CH[dY](Et)[hArg][Bip][βAla][dC]T-NH2; disulfide 2-8) needs its Ki filled in; supply it. 36.9

Entry CCCC[C@H](NC(C)=O)C(=O)N[C@H]1CSSC[C@@H](C(N)=O)NC(=O)CCCCCNC(=O)[C@H](Cc2c[nH]c3ccccc23)NC(=O)[C@H](CCCNC(=N)N)NC(=O)[C@@H](Cc2ccc3ccccc3c2)NC(=O)[C@H](Cc2c[nH]cn2)NC1=O (Ac-[Nle]CH[d2Nal]RW[Ahx]C-NH2; disulfide 2-8 (inferred)) needs its Ki filled in; supply it. 0.998

Entry CCCC[C@H](NC(C)=O)C(=O)N[C@@H]1C(=O)N[C@@H](Cc2c[nH]cn2)C(=O)N[C@H](Cc2ccccc2)C(=O)N[C@@H](CCCNC(=N)N)C(=O)N[C@@H](Cc2c[nH]c3ccccc23)C(=O)NCCCC(=O)N[C@H](C(N)=O)CSSC1(C)C (Ac-[Nle][Pen]H[dF]RW[GABA]C-NH2; disulfide 2-8 (inferred)) needs its Ki filled in; supply it. 5.89
